Under this convention, t denotes melting point strictly below 70 °C and f denotes melting point at or above 70 °C.

Solved entries:
Cc1cc(N(C)C)nc(Cl)n1 = f
CCCC(=O)c1ccc(C)cc1 = t
CC12CCC(CC1)C(C)(C)O2 = t
CC(C)CCCCC(C)C = t
Cc1ccc(P(c2ccc(C)cc2)c2ccc(C)cc2)cc1 = f

### Prompt Is it true that melting point reported for CC1(C)C(=O)Nc2ccccc21 is less than 70 °C?
### Response f

### Prompt Check if melting point falls below 70 °C for ClCCCOc1ccccc1 .
### Response t

### Prompt Does S=C1SCN(Cc2ccccc2)CN1Cc1ccccc1 have melting point strictly under 70 °C?
### Response f

### Prompt In plain terms, does COS(=O)(=O)c1ccc([N+](=O)[O-])cc1 come in under 70 °C for melting point?
### Response f

### Prompt I wonder whether CCCC(=O)Nc1ccc(OCC(O)CNC(C)C)c(C(C)=O)c1 (stereo not drawn) has melting point below 70 °C. Can you tell?
### Response f

### Prompt Does O=C(O)[C@H]1CC=CCC1 have melting point strictly under 70 °C?
### Response t

====

Quick reference for melting point among some compounds
Expressed in °C, but write only the number.

Sample records with melting point:
CCC(c1ccccc1)c1ccccc1 = 13.3
CCCCCCCC1CCCCC1 = -30
COc1ccc2c(c1OC)C(=O)OC2 = 102
CCCCCCOc1ccccc1C(N)=O = 71
CC1(C)[C@@H](OC(=O)CCC(=O)O)CC[C@]2(C)[C@H]3C(=O)C=C4[C@@H]5C[C@@](C)(C(=O)O)CC[C@]5(C)CC[C@@]4(C)[C@]3(C)CC[C@@H]12 = 292
O=C(O)c1ccc([N+](=O)[O-])o1 = 186

As a next step, examine the compound that follows.
The compound identified as CCCCCCCCCCCC(=O)c1ccccc1 registered its melting point at 47

====

Use 90 °C as the dividing line for melting point, with the line itself on the YES side and lower values as NO.

Solved entries (count: 3):
CC(=O)OOC(=O)c1ccccc1 = NO
NC(N)=N/C(N)=N/c1ccccc1 = YES
Cc1ccccc1NC=O = NO

### Prompt API: above_or_equal(metric=melting point, cutoff=90 °C) for item CC(C)(C)S(=O)(=O)O
### Response YES

### Prompt Reported melting point reaches at least 90 °C for Cc1cc(Cl)c2ccccc2n1 ?
### Response NO

### Prompt Decide: is the reported value of melting point for O=NN(CCCl)C(=O)NCCCl equal to or greater than 90 °C?
### Response NO

### Prompt Is melting point for ClCCl at or above 90 °C?
### Response NO

### Prompt Test whether the compound Cc1cccc2c1ccc1c3ccccc3ccc21 records melting point of 90 °C or higher.
### Response YES

### Prompt Hi, just wondering whether COc1ccc(CN(CCN(C)C)c2ncccn2)cc1.Cl shows melting point of 90 °C or higher.
### Response YES

====

Parameter: log10 vapour pressure (mmHg). Scope: all listed entries.
I only need the number, thanks.

Cc1nn(-c2cc(NS(C)(=O)=O)c(Cl)cc2Cl)c(=O)n1C(F)F = -9.01
CCCCCCCCCCCC(=O)OC = -2.39
CN(C)c1ccc([N+](=O)[O-])cc1 = -5.22
CCCCOCC1CO1 (configuration not stated) = 0.505
CC(CCO)CC(C)(C)C (configuration not stated) = -0.523

COC=O has a reported log10 vapour pressure (mmHg) of 2.77

# log10 vapour pressure (mmHg) (compound: CCOP(=S)(OCC)Oc1ccc([N+](=O)[O-])cc1 ) is -5.18

For this compound ( Cc1ccc(C(C)C)cc1 ), measured log10 vapour pressure (mmHg) is 0.19
